Measured values drawn from the supplement of paper PMC9170038 for this set.

# Test system: MS2 coat protein
# PROTOCOL: apparent KD of MS2 coat protein; designed switch direction (-1 OFF switch, 1 ON switch): 1; higher = weaker reporter binding
# CONDITION_PARAMETERS: Eterna round: R95; input ligand: FMN 200 uM
Rule: apparent KD of MS2 coat protein under 100 nM gives no, otherwise yes.

RESIDUE_SEQUENCE: GUGGCCCAGGCACAGGAUAUGUUUCUCGUAACAUGAGGAUCACCCAUGUGCCUAUGAGAUUUUAUGCAGAAGGGUGCACGCCACG [JL Atiinbe mod 01] (puzzle: Same State 2)
LABEL_CLASS: no
//
RESIDUE_SEQUENCE: GGUCCAGCCUGAGCUGGACAGAAGCAUGUACAUGAGGAUCACCCAUGUCAUGUACAAGCUUUUUGCUCGUCUUAAAA [JL mod - D87 - 1] (puzzle: Sensor for hsa-mir-208a)
LABEL_CLASS: yes
//
RESIDUE_SEQUENCE: CUAUGACAUGAGGAUCACCCAUGUGAUAAUUUCAUAGGAUAUACGGCGCCGUUAAGGGCCGUAGAAGGGUGAUCGA [Veonti] (puzzle: Same State 1)
LABEL_CLASS: no
//
RESIDUE_SEQUENCE: UGCCAUUGUAUAUUGGUGCAAGCUUUUUGACAUGAGGAUCACCCAUGUACUCGUCUUAUGUGCAGUCCGUAGACUGC [JL-shm-2.23 Brourd mod] (puzzle: Sensor for hsa-mir-208a)
LABEL_CLASS: no
//
RESIDUE_SEQUENCE: CGGCGCUGUCGAGAGGAUAUGCGGUGAUGGACAUGAGGAUCACCCAUGUUAGCGAUAGCAUUACGGUAGAAGGCUCCACAGCUGU [Soteed Omei mod 12] (puzzle: Same State 2)
LABEL_CLASS: no
//
RESIDUE_SEQUENCE: UAGUACAAGCUUUUUGCUUGUCUUAUUUAACAUGAGGAUCACCCAUGUAAGUUGAAAGUUAGAGAGUGCACCUUCAA [JR_SHM208A_Sub052] (puzzle: Sensor for hsa-mir-208a)
LABEL_CLASS: no
//
RESIDUE_SEQUENCE: UCUUGGUUUUUGCUCGUUUUUUGUGUUGAACAUGAGGAUCACCCAUGUAUUGUACAAUCCAGUUUAAUAAUGGUCCG [JMF 49] (puzzle: Sensor for hsa-mir-208a)
LABEL_CLASS: yes
//
RESIDUE_SEQUENCE: GGUCCAGCCUGAGCUGGACCACAGCAUGUACAUGAGGAUCACCCAUGUCAUGUACAAGCUUUUUGUUUAACUUAAAA [Sensorship 12 - Jieux - Sensor for hsa-mir-208a] (puzzle: Sensor for hsa-mir-208a)
LABEL_CLASS: yes
//
RESIDUE_SEQUENCE: GGCUAUCGCGUACGAUAGCUUAGGCAUGUACAUGAGGAUCACCCAUGUCAUGUACAGGCUUUUUGCUCGUCUUAUUG [JL-shm-2.36 JL mod] (puzzle: Sensor for hsa-mir-208a)
LABEL_CLASS: yes
//
RESIDUE_SEQUENCE: AGUCCAGCGAAAGCUGGACAAAAGCAUGUACAUGAGGAUCACCCAUGUUCAUGUAUAAGCUUUUUGCUCGUCUUAAA [JL mod - D95 - 12] (puzzle: Sensor for hsa-mir-208a)
LABEL_CLASS: no
